- protocol: NCI Yeast Anticancer Drug Screen. Data for the cln2 rad14 strain (AID 165)
- condition.description: S. cerevisiae cln2 rad14 strain, at 50.0 µM
The panel holds about 79,000 compounds, 15% with a hit somewhere; the sample as a whole holds those more often. Calls of active or inactive are those of the source. Cut-off read from the data, not from the text of the source: active = growth inhibition above about 70%; inactive = the rest.
Classes used: T for active, F for inactive

compound: COc1ccccc1NC(N)=S
group.label: F

compound: CNC(=S)NC
group.label: F

compound: O=Cc1ccc2c(c1)CC1(Cc3ccccc3C1)C2
group.label: F

compound: O=C(Nc1ccccc1F)OCCCl
group.label: F

compound: CC(C)c1ccc(/C=N\N(C)C)cc1
group.label: F

compound: Cc1cc(-c2ccc(N=Nc3c(C)nn(-c4ccc(S(=O)(=O)O)cc4)c3O)c(C)c2)ccc1N=Nc1ccc(O)c(C(=O)O)c1
group.label: F

compound: CCCCCC[C@H](C/C=C\CCCCCCCC(=O)OCCCC)OC(C)=O
group.label: F

compound: C/C(=N/NC(N)=O)C1C2CC3C(C2Cl)C31 (stereo not drawn)
group.label: F

compound: CCOC(=O)/C(=C\c1ccccc1Cl)C(C)=O
group.label: T

compound: O=C1CSC(=S)N1N1C(=O)CSC1=S
group.label: F

compound: O=C(O)C1CSCN1 (stereo not drawn)
group.label: F

compound: c1ccc2c3c(ccc2c1)Oc1ccc2ccccc2c1C3
group.label: F

compound: OCCSc1ccc(Cl)cc1
group.label: F

compound: C/C=C/C(=O)OCCCCCCCCCCCCCCCCCC
group.label: F

compound: O=C(c1ccccc1)N1CC2CCC1CN2C(=O)c1ccccc1
group.label: F

compound: O=C(OCc1ccccc1)c1ccccc1
group.label: F

compound: CC(C)C(O)(c1ccccc1)C(O)(c1ccccc1)C(C)C (stereo not drawn)
group.label: T

compound: COc1cc(/C=C/C(=O)OC2C(O)C3CC(OC(=O)c4cc(OC)c(OC)c(OC)c4)CC2N3C)cc(OC)c1OC (stereo not drawn)
group.label: F

compound: N#CNS(=O)(=O)c1ccccc1
group.label: F

compound: CC(=O)N1Cc2c(N)ncnc2C1C (stereo not drawn)
group.label: F

compound: CCCCN=C=C(c1ccccc1)c1ccccc1
group.label: F

compound: Nc1nnc2nc(CC(=O)Cc3ccccc3)c(CC(=O)Cc3ccccc3)nn12
group.label: F

compound: CCOC(=O)c1nnn(Cc2ccccc2)c1N
group.label: F

compound: Cc1cccc(Cl)c1N
group.label: F

compound: COC(=O)/C=C/c1ccc(OC(C)=O)c(OC)c1
group.label: F

compound: CCCCCCCCCCCCCCCCC1Cc2ccccc2C1
group.label: F

compound: FC(F)(F)c1ccc(C(Nc2nncs2)Nc2nncs2)cc1
group.label: F

compound: CN(C)/C=N/NC(=O)c1ccccc1N
group.label: F

----------
- protocol: NCI Yeast Anticancer Drug Screen. Data for the mlh1 rad18 strain (AID 175)
- condition.description: S. cerevisiae mlh1 rad18 strain growth inhibition; at 50.0 µM; active compounds read high
This is part of a sample that, as a whole, favours compounds with a hit. Of some 79,000 tested, about 15% had one in any assay.
Output: class label from growth inhibition. Mapping: bottom bin (below -10%), middle bin (-10% to below 10%), top bin (10% or more)

compound: CC(=O)N1Cc2c(N)ncnc2C1C (stereo unspecified)
group.label: bottom bin
--
compound: Cc1ccc(S(=O)(=O)N2CCC(C(=O)O)(c3ccccc3)CC2)cc1
group.label: middle bin
--
compound: CC12CCC3c4ccc(O)cc4CCC3C1CC(OC1OC(C(=O)O)C(O)C(O)C1O)C2O (stereo unspecified)
group.label: top bin
--
compound: N#CC1=CN(Cc2ccccc2)C(c2ccccc2)C=C1 (stereo unspecified)
group.label: top bin
--
compound: COc1ccc2c(c1)CCc1cc(OC)ccc1/[N+]([O-])=[N+]\2[O-]
group.label: top bin
--
compound: Cc1ccc(C(C)C)cc1NC(=O)c1cccc([N+](=O)[O-])c1
group.label: middle bin
--
compound: CC(C)N(C(=O)C12CC3CC(CC(C3)C1)C2)C(C)C
group.label: middle bin
--
compound: COC(=O)/C(=C\c1ccc(N(CCC#N)CCC#N)cc1)NC(=O)c1cc([N+](=O)[O-])ccc1Cl
group.label: middle bin
--
compound: CC(C)SC1SCC2C(=O)N(C)C3(CC3C)C(=O)OCC(NC(=O)c3nc4ccccc4cc3O)C(=O)NC(C)C(=O)N(C)C1C(=O)N(C)C1(CC1C)C(=O)OCC(NC(=O)c1nc3ccccc3cc1O)C(=O)NC(C)C(=O)N2C (stereo unspecified)
group.label: top bin
--
compound: C=CCC(O)CC=C
group.label: middle bin
--
compound: COc1ccc(OC)c2c(Nc3ccc(S(=O)(=O)O)c4cc(S(=O)(=O)O)cc(S(=O)(=O)O)c34)cc(C)nc12
group.label: top bin
--
compound: ClC(Cl)=C(c1ccccc1)c1ccccc1
group.label: top bin
--
compound: COc1ccc(Cl)cc1NC(=O)Oc1cc2ccccc2cc1C(=O)Nc1ccccc1
group.label: bottom bin
--
compound: CN(C)CCC(CCN(C)C)=NO
group.label: bottom bin
--
compound: Cc1ccc(S(=O)(=O)N2CCC(C(=O)N3CCCC3)(c3cccc(C)c3)CC2)cc1
group.label: bottom bin
--
compound: COc1ccc(S(=O)(=O)N/N=C/c2cc(I)cc([N+](=O)[O-])c2O)cc1OC
group.label: top bin
--
compound: COC(=O)c1ccccc1N=NNc1ccc(C(F)(F)F)c([N+](=O)[O-])c1
group.label: bottom bin
--
compound: Cc1ccnc(NC(NC(=O)c2ccccc2)(C(F)(F)F)C(F)(F)F)c1
group.label: bottom bin
--
compound: Clc1ccc2sc(-c3ccccc3)nc2c1
group.label: middle bin
--
compound: OCCCN=C1CCCCC1
group.label: bottom bin
--
compound: OC1COC(O)(CNCCc2c[nH]c3ccc(OCc4ccccc4)cc23)C(O)C1O (stereo unspecified)
group.label: top bin
